Data credit: paper PMC8466554

- Test system: S.aureus Mu50-VISA
- assay-name: MIC and MBC microtiter plate assay
- Format: cell-based, Staphylococcus aureus
- condition: value in brackets
observable: MBC (µM)
Please give a number only; it is taken to be in µM.

(Q) Look up and report measured MBC for this entry: CCCCN(CCCC)c1ccc(-c2ccc(C=C3CCCc4c[n+](CC)ccc43)s2)s1.[I-]
(A) 13.83

(Q) Look up MBC of CN(C)c1ccc(/C=C/c2cccc(/C=C/c3ccc(N(C)C)cc3)[n+]2C)cc1.[I-] and report it.
(A) 3.91

(Q) Read off the recorded MBC for Clc1ccc(Cl)c(-c2ccc(/C=C/c3cc[n+](-c4ncccn4)cc3)o2)c1.F[P-](F)(F)(F)(F)F
(A) 7.40

(Q) Tell me its MBC given CC[n+]1ccc2c(c1)CCCC2=Cc1ccc(-c2ccc(Cl)cc2)o1.[I-] as the entry.
(A) 34.50
